Source listed as the Human Domainome abundance scans (Beltran et al. 2025).

We begin with a simple list: items and their reported abundance fitness.
B1: Membrane-associated guanylate kinase, WW and PDZ domain-containing protein 1, residues 352 to 401; numbered along this chain, Q96QZ7 (parent)
chain: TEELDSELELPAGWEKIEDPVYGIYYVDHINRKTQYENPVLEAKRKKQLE

Variants of: B1
ASSAY REMARKS: abundance fitness (aPCA) (normalised: wild type 0, dead -1); higher = more abundant; growth selection in yeast, the domain comes from the species named
CONDITION PARAMETERS: Homo sapiens
Output: the number by itself.

VARIANT ID: V27H
abundance fitness: -0.307

# abundance fitness of L8P = -0.248

# abundance fitness of N38Q = -0.387

# abundance fitness of V27K = 0.044
